# Test system: A673/TR/shEF
# assay name: cell viability (LOESS-normalised, relative to median of negative controls) (log2 ratio); higher = more viable cells (less compound effect), active = hit call of the paper (over 3 MAD below the median)
# cond: 0.308 µM; library screen: screen3; EWS-FLI1 expression: low (doxycycline-induced shRNA knockdown); treatment time: 72 h
About 300 (9.4%) of roughly 3,200 compounds showed activity. The sample holds actives, similar compounds and a random draw of the others, so the mix is not that of the screen.
Valid outcomes are listed here; reply with one: active, inactive

Known results for compounds:
O=c1[nH]c(=O)n([C@H]2C[C@H](O)[C@@H](CO)O2)cc1C(F)(F)F = inactive
CC1(C)C(=O)N(CCN2CCC(C(=O)c3ccc(F)cc3)CC2)c2ccccc21 = inactive
OCC1OC(O)C(O)C(O)C1O (stereo not drawn) = inactive
Nc1nc(F)nc2c1ncn2[C@@H]1O[C@H](CO)[C@@H](O)[C@@H]1O = inactive
COCCn1c2c([n+](Cc3cnccn3)c1C)C(=O)c1ccccc1C2=O = active

Data request: // return assay outcome for NC(=O)c1ncn([C@@H]2O[C@H](CO)[C@@H](O)[C@H]2O)c1N
Data returned: inactive

Data request: // return assay outcome for CC(=O)O[C@H]1C(=O)[C@@]2(C)[C@H]([C@H](OC(=O)c3ccccc3)[C@]3(O)C[C@H](OC(=O)[C@H](O)[C@@H](NC(=O)c4ccccc4)c4ccccc4)C(C)=C1C3(C)C)[C@]1(OC(C)=O)CO[C@@H]1C[C@@H]2O
Data returned: active

====

Recorded cell viability (log2) values for a group of compounds are listed next.
# System: A673/TR/shEF
# assay name: cell viability (LOESS-normalised, relative to median of negative controls) (log2 ratio); higher = more viable cells (less compound effect), active = hit call of the paper (over 3 MAD below the median)
# cond: 2.5 µM; library screen: screen1; EWS-FLI1 expression: high (no doxycycline); treatment time: 72 h
Among all 3,200 compounds or so, about 300 (9.4%) showed activity. Only a selection was taken, and actives are over-represented in it overall.

Example entries and their recorded answers appear below.
COC1=C[C@@H](C)[C@@H]2C[C@H]3OC(=O)C[C@H]4C(C)=C(OC)C(=O)[C@H]([C@@]2(C)C1=O)[C@@]34C = 0.146 (inactive)
O=c1nc[nH]c2nc[nH]c12 = 0.152 (inactive)
Cc1ccc(C(=O)NCc2ccc3c(c2)OCO3)cc1 = 0.0676 (inactive)
CO[C@H]1C=C[C@@]23c4cc5c(cc4CN(C[C@@H]2O)[C@H]3C1)OCO5 = -0.415 (active)

The compound listed as CC(C)CCC[C@@H](C)[C@H]1CC[C@H]2C3=CC[C@H]4C[C@@H](O)CC[C@]4(C)[C@H]3CC[C@]12C shows cell viability (log2) equal to 0.0758 (inactive)

====

# Tested on: A673/TR/shEF
# assay name: cell viability (LOESS-normalised, relative to median of negative controls) (log2 ratio); higher = more viable cells (less compound effect), active = hit call of the paper (over 3 MAD below the median)
# cond: 0.25 µM; library screen: screen1; EWS-FLI1 expression: low (doxycycline-induced shRNA knockdown); treatment time: 72 h
The whole screen tested about 3,200 compounds, of which about 300 (9.4%) showed activity. This is one part of a sample in which actives are shown more often than they occur.
Quick rule for you: cell viability (log2) under 0.08 gets Yes, anything else gets No.

Known results for compounds:
Nc1ccc(S(=O)(=O)Nc2ncccn2)cc1 = No
COc1cc(/C=C/C=O)cc(OC)c1OC = Yes
CC1=C(C(=O)Nc2ccccc2Cl)C(c2ccc(F)cc2)NC(=O)N1 (stereo unspecified) = No
COC(=O)[C@H]1[C@H]2C[C@H]3c4[nH]c5cc(OC)ccc5c4CCN3C[C@H]2C[C@@H](OC(=O)c2cc(OC)c(OC)c(OC)c2)[C@@H]1OC = No

Data request: Lab log: compare recorded cell viability (log2) with 0.08; is it strictly lower for C[C@@H]1[C@H]2[C@H](O[C@@H]3O[C@H](CO)[C@@H](O)[C@H](O)[C@H]3O)OC=C(C(=O)O)[C@H]2C[C@@H]1O ?
Data returned: Yes

Data request: Lab log: compare recorded cell viability (log2) with 0.08; is it strictly lower for COC1=C(OC)C(=O)C(C/C=C(\C)CC/C=C(\C)CC/C=C(\C)CC/C=C(\C)CC/C=C(\C)CC/C=C(\C)CC/C=C(\C)CC/C=C(\C)CC/C=C(\C)CCC=C(C)C)=C(C)C1=O ?
Data returned: No

Data request: Lab log: compare recorded cell viability (log2) with 0.08; is it strictly lower for CCOC(=O)c1c(C)cc(O)cc1O ?
Data returned: Yes

Data request: Lab log: compare recorded cell viability (log2) with 0.08; is it strictly lower for CCCCOCCOC(=O)CCCOc1ccc(Cl)cc1Cl ?
Data returned: Yes

Data request: Lab log: compare recorded cell viability (log2) with 0.08; is it strictly lower for COc1cc(/C=C2\SC(NC(C)=O)=NC2=O)cc(Br)c1OC ?
Data returned: Yes

Data request: Lab log: compare recorded cell viability (log2) with 0.08; is it strictly lower for COc1cccc(CN2CCN(Cc3cccc([N+](=O)[O-])c3)CC2)c1 ?
Data returned: No

====

# Tested on: A673/TR/shEF
# assay name: cell viability (LOESS-normalised, relative to median of negative controls) (log2 ratio); higher = more viable cells (less compound effect), active = hit call of the paper (over 3 MAD below the median)
# cond: 0.25 µM; library screen: screen1; EWS-FLI1 expression: low (doxycycline-induced shRNA knockdown); treatment time: 72 h
Screen size: about 3,200 compounds; about 300 (9.4%) showed activity. The full list was thinned out, with actives kept by preference.
Note: every record was labeled by where its cell viability (log2) sits among LOW = under 0.01, MEDIUM = from 0.01 up to 0.09, HIGH = 0.09 and over

Known results for compounds:
CC(=O)NCCCCCC(=O)O = HIGH
Cn1c(=O)[nH]c2nc[nH]c2c1=O = HIGH
CC12CCC3c4ccc(OC(=O)c5ccccc5)cc4CCC3C1CCC2=O (stereo not given) = MEDIUM
O=C(O)CCCCCCCC(=O)O = HIGH
CCN(CC)C(=S)SSC(=S)N(CC)CC = LOW
NCCCCC(=O)O = HIGH
COc1ccccc1-c1cc(=O)c2c(OC)cccc2o1 = LOW
Cn1c(=O)c2[nH]cnc2n(C)c1=O = MEDIUM

Data request: Please let me know in which category the item O=C(O)c1ccc(OC2CSC2)cc1 belongs.
Data returned: MEDIUM

Data request: Please let me know in which category the item CC(C)CCCCCOC(=O)COc1ccc(Cl)cc1Cl belongs.
Data returned: HIGH

Data request: Please let me know in which category the item C/C(=C\CO)CCC[C@H](C)CCC[C@H](C)CCCC(C)C belongs.
Data returned: MEDIUM

Data request: Please let me know in which category the item CN1CCN(c2nc3ccccn3c(=O)c2/C=C2\SC(=S)N(C)C2=O)CC1 belongs.
Data returned: LOW

Data request: Please let me know in which category the item COc1cc([S+](C)[O-])ccc1-c1nc2ncccc2[nH]1 (stereo not given) belongs.
Data returned: LOW

====

# Tested on: A673/TR/shEF
# assay name: cell viability (LOESS-normalised, relative to median of negative controls) (log2 ratio); higher = more viable cells (less compound effect), active = hit call of the paper (over 3 MAD below the median)
# cond: 2.8 µM; library screen: screen3; EWS-FLI1 expression: high (no doxycycline); treatment time: 72 h
Screen size: about 3,200 compounds; about 300 (9.4%) showed activity. The sample as a whole holds a higher share of actives than the screen did.
Valid outcomes are listed here; reply with one: active, inactive

Known results for compounds:
CC[C@H](CO)Nc1nc(NCc2ccccc2)c2ncn(C(C)C)c2n1 = inactive
Cn1c(=O)c2[nH]cnc2n(C)c1=O = inactive
COc1ccc(Cl)cc1C(=O)NCCc1ccc(S(=O)(=O)NC(=O)NC2CCCCC2)cc1 = inactive
CS(=O)(=O)c1ccc(C(=O)Nc2ccc(Cl)c(-c3ccccn3)c2)c(Cl)c1 = inactive
S=c1nc[nH]c2nc[nH]c12 = inactive

Data request: // return assay outcome for C/C(=C\C(=O)Nc1ccccc1C(=O)O)c1ccc2ccccc2c1
Data returned: inactive

Data request: // return assay outcome for Cc1nc(N)sc1-c1ccnc(Nc2ccc(N3CCOCC3)cc2)n1
Data returned: active

Data request: // return assay outcome for CCCCCCCCCC(=O)N[C@@H](Cc1c[nH]c2ccccc12)C(=O)N[C@@H](CC(N)=O)C(=O)N[C@@H](CC(=O)O)C(=O)NC1C(=O)NCC(=O)N[C@@H](CCCN)C(=O)N[C@@H](CC(=O)O)C(=O)N[C@H](C)C(=O)N[C@@H](CC(=O)O)C(=O)NCC(=O)N[C@H](CO)C(=O)N[C@@H](C(C)CC(=O)O)C(=O)N[C@@H](CC(=O)c2ccccc2N)C(=O)OC1C (stereo partly specified)
Data returned: inactive

Data request: // return assay outcome for CCC1=C(C)CN(C(=O)NCCc2ccc(S(=O)(=O)NC(=O)NC3CCC(C)CC3)cc2)C1=O (stereo unspecified)
Data returned: inactive

Data request: // return assay outcome for COc1cc([C@@H]2c3cc4c(cc3[C@@H](O[C@@H]3O[C@@H]5CO[C@@H](c6cccs6)O[C@H]5[C@H](O)[C@H]3O)[C@H]3COC(=O)[C@H]23)OCO4)cc(OC)c1O
Data returned: active
